target: Muscarinic acetylcholine receptor; assay: Displacement of [3H]N-methylscopolamine from rat brain homogenate; type: tissue-based
TEST READOUT: IC50 (nM)

- O=C1CCC(c2ccccc2)(C2CCN(Cc3cccc(F)c3)CC2)C(=O)N1 (stereo not drawn): 21

I. O=C1CCC(c2ccccc2)(C2CCN(Cc3cccc(Br)c3)CC2)C(=O)N1 (stereo not drawn)
II. O=C1CCC(c2ccccc2)(C2CCN(Cc3ccccc3Cl)CC2)C(=O)N1 (stereo not drawn)
Could you check which of I and II has a smaller value for IC50? Response format: the label of the selected entry.
I
(I: 24 nM, II: 460 nM)
